Data origin, for the record: patent US9216968B2

# STUDY_TARGET: human mPGES-1 (Homo sapiens (Human))
Where a name gives a salt, the structure may show the parent alone.
MEASURE_NAME: pIC50
The value called pIC50 is obtained by taking minus log10 of the concentration in mol/L.

Study these solved cases before continuing.
1) Cc1c(Cl)cccc1NC(=O)c1cc(NC(=O)c2c(Cl)cccc2Br)cc2[nH]c(N(C)C)nc12 [Example 187, hydrochloride]; 8.44
2) COCc1nc2c(C(=O)NCc3cccs3)cc(NC(=O)c3ccccc3C(F)(F)F)cc2[nH]1 [Example 223, hydrochloride]; 7.17
3) O=C(Nc1cc(C(=O)NCc2ccccc2C(F)(F)F)c2[nH]ncc2c1)c1ccccc1C(F)(F)F; 6.48

[Q] # value lookup — system human mPGES-1 (Homo sapiens (Human)), readout pIC50, item Cc1c(Cl)cccc1NC(=O)c1cc(NC(=O)c2c(F)cccc2Cl)cc2[nH]c(NCCOC(C)C)nc12 [Example 194, hydrochloride]
[A] 9.40

[Q] Lab note: need pIC50 with human mPGES-1 (Homo sapiens (Human)) for entry COCc1nc2c(C(=O)Nc3ccccc3C)cc(NC(=O)c3ccccc3C(F)(F)F)cc2[nH]1 [Example 22, hydrochloride] , please look it up.
[A] 8.32

[Q] Any idea what pIC50 came out for COCc1nc2c(C(=O)Nc3cccc4c3CCCC4)cc(NC(=O)c3ccccc3C(F)(F)F)cc2[nH]1 [Example 34, hydrochloride] on human mPGES-1 (Homo sapiens (Human))?
[A] 8.31

----------
Counter-ions that a name gives are not always drawn.
Record type: pIC50 measurement. Applies to: human mPGES-1 (Homo sapiens (Human), UniProt O14684)
# reply with the number alone; pIC50 is -log10 of concentration in mol/L

1) COCc1nc2c(C(=O)Nc3cccc(Cl)c3C)cc(NC(=O)c3ccc(C)cc3Cl)cc2[nH]1 [Example 105, hydrochloride]; 8.05

[Q] Lookup: pIC50 / human mPGES-1 (Homo sapiens (Human), UniProt O14684) / Cc1c(Cl)cccc1NC(=O)c1cc(NC(=O)c2ccccc2C(F)(F)F)cc2[nH]c(NCC(C)(C)CO)nc12 [Example 158, hydrochloride]
[A] 8.07

[Q] Return pIC50 measured with human mPGES-1 (Homo sapiens (Human), UniProt O14684) given this compound: COCc1nc2c(C(=O)Nc3cccc(Cl)c3C)cc(NC(=O)c3cc(CCc4ccccc4)ccc3Cl)cc2[nH]1 [Example 123, hydrochloride]
Sequence (O14684 whole entry): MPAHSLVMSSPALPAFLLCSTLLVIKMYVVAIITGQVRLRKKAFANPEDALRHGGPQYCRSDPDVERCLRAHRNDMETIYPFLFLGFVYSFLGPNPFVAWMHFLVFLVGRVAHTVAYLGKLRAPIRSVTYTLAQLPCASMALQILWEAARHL
[A] 8.06

[Q] What pIC50 appears in the records for this compound with human mPGES-1 (Homo sapiens (Human), UniProt O14684)? CCOCCOCc1ccc(Cl)c(C(=O)Nc2cc(C(=O)Nc3cccc(Cl)c3C)c3nc(COC)[nH]c3c2)c1 [Example 121, hydrochloride]
[A] 8.20

[Q] Under human mPGES-1 (Homo sapiens (Human), UniProt O14684): pIC50 value of COCc1nc2c(C(=O)Nc3cccc(Cl)c3C)cc(NC(=O)c3ccccc3Br)cc2[nH]1 [Example 97, hydrochloride] ?
[A] 8.21

----------
Notes on pIC50 obtained with human mPGES-1 (Homo sapiens (Human), UniProt O14684).
Where a name gives a salt, the structure may show the parent alone.
Scale note: pIC50 = -log10(concentration in M).

Here's what some known entries look like.
1. COCc1nc2c(C(=O)NC3CCCCC3)cc(NC(=O)c3ccccc3C(F)(F)F)cc2[nH]1 [Example 20]; 8.25
2. COCc1nc2c(C(=O)Nc3cccc(Cl)c3C)cc(NC(=O)c3c(Cl)cccc3Br)cc2[nH]1 [Example 102, hydrochloride]; 8.80
3. CCOCc1ccc(Cl)c(C(=O)Nc2cc(C(=O)Nc3cccc(Cl)c3C)c3nc(COC)[nH]c3c2)c1 [Example 120]; 7.24
4. Cc1c(Cl)cccc1NC(=O)c1cc(NC(=O)c2c(F)cccc2Cl)cc2[nH]c(NCC(C)(C)CO)nc12 [Example 200, hydrochloride]; 8.34
5. Cc1c(Cl)cccc1NC(=O)c1cc(NC(=O)c2cc(C#CC3CC3)ccc2Cl)cc2[nH]c(N(C)C)nc12 [Example 188, hydrochloride]; 6.34
6. COCc1nc2c(C(=O)NCC3CCCCC3)cc(NC(=O)c3ccccc3C(F)(F)F)cc2[nH]1 [Example 218, hydrochloride]; 8.28

--- query ---
[Q] Find pIC50 (human mPGES-1 (Homo sapiens (Human), UniProt O14684)) for the entry COCC(C)(C)CN(C)c1nc2c(C(=O)Nc3cccc(Cl)c3C)cc(NC(=O)c3ccccc3C(F)(F)F)cc2[nH]1 [Example 173, hydrochloride]
[A] 8.96
